test system: HOP-92 NSCLC; assay: NCI-60 one-dose screen, 48 h (100 = growth as untreated, 0 = no growth, -100 = all killed); conditions: 10 µM unless noted
About 83,000 compounds went through this panel and 20% of them were active in at least one assay; those are over-represented in the sample as a whole.
measured_attribute: growth (%)
State the answer as a number, implicitly in %.

Take a look at these entries with their results.
>>> measured_number("Cc1ccc(C)c2c1sc1nc(N3CCOCC3)c(C#N)c(=O)n12")
71.7
>>> measured_number("CCOC(=O)c1cnn(CC(C)O)c1NC(=O)NCc1cccc(F)c1 (centres undefined)")
68
>>> measured_number("Cc1cc(O)c(=O)cc2c1C[C@H]1CC(C)(C)/C=C/C[C@]3(C)Oc4cc(=O)c(O)cc(C)c4C[C@H]3C[C@H](O)[C@@]1(C)O2")
2.97
>>> measured_number("Cc1ccc(O)c(NC(=O)c2cccc(Nc3ccnc(C(F)(F)F)c3)c2)c1")
77.6
>>> measured_number("CC(=O)O[C@H]1CC[C@]2(C)[C@H]3CC=C4[C@@H]5CC(C)(C)CC[C@]5(C(=O)N5CCN(CCC#N)CC5)CC[C@@]4(C)[C@]3(C)CC[C@H]2C1(C)C")
56.7

## Task Identify growth associated with the compound COc1cccc(CNc2c3ccccc3nc3ccccc23)c1OC
## Result -2.4

## Task Identify growth associated with the compound CCN(CC)CCCC(Cc1ccccc1)Nc1c2ccc(Cl)cc2nc2ccc(OC)cc12 (centres undefined)
## Result -4.73

## Task Identify growth associated with the compound Cc1ccc2c(/C=C/C(=O)c3cc(CN4CCOCC4)c(O)c4nc(C)ccc34)cc(CN3CCOCC3)c(O)c2n1
## Result 30.9

## Task Identify growth associated with the compound COc1ccc(C=Nc2c(C(=O)Nc3cccc(Cl)c3C)sc3nc(C)c(C(=O)/C=C/c4ccc(OC)cc4)cc23)cc1
## Result 79.2

## Task Identify growth associated with the compound CS(=O)(=O)Nc1cc(-c2ccc3ncnc(Nc4ccc(F)c(Cl)c4)c3c2)ccc1Cl
## Result -6.71

## Task Identify growth associated with the compound Cc1nc(N/N=C/c2cn(-c3ccccc3)nc2-c2cc3ccccc3oc2=O)sc1N=Nc1ccccc1
## Result 97.1

====

system: 786-0 renal; assay: NCI-60 one-dose screen, 48 h (100 = growth as untreated, 0 = no growth, -100 = all killed); conditions: 10 µM unless noted
About 83,000 compounds went through this panel and 20% of them were active in at least one assay; those are over-represented in the sample as a whole.
measured_attribute: growth (%)
State the answer as a number, implicitly in %.

>>> measured_number("c1cc(OCCN2CCCCCC2)ccc1CNc1ccc2nc(CCC3CCCCC3)[nH]c2c1")
54.2
>>> measured_number("Nc1cc(Br)cc2c1[nH]c(=O)c1ccccc12")
101

## Task Identify growth associated with the compound O=C(/C=C/c1ccccc1)N(C1CCCCC1)C1CCCCC1
## Result 82.2

## Task Identify growth associated with the compound O=c1ccc2ccc(OCCN3CCCCC3)cc2o1
## Result 99.5

## Task Identify growth associated with the compound CCCOC(=O)Nc1nc2ccc(SCC)cc2s1
## Result 93.9

## Task Identify growth associated with the compound CC(=O)c1c(Nc2cccc(F)c2)[nH]c2c(Cl)cc(Cl)c(Cl)c2c1=O
## Result 12.2

## Task Identify growth associated with the compound COC12C=C/C(=C(/C(=O)OCCSc3ccnn3C)C(=O)CCCCCCCCC3(OC)C=C/C(=C(/C(=O)OCCSc4ccnn4C)C(=O)CCCCCCCC1)O3)O2
## Result -29.2

## Task Identify growth associated with the compound Nc1nc2ccccc2c2c(=O)c3cc(Cl)ccc3sc12
## Result 98.5

## Task Identify growth associated with the compound CCN(CC)CCCC(Cc1ccccc1)Nc1c2ccc(Cl)cc2nc2ccc(OC)cc12 (stereo not given)
## Result -22.6

## Task Identify growth associated with the compound CC(C)C1C2=C(NCCN1C(=O)c1ccncc1)C(C)(C)N(Cc1ccccc1)C2=O (stereo not given)
## Result 105

## Task Identify growth associated with the compound N#CC1=C(N)Oc2c(sc3c(F)cccc23)C1c1ccc([N+](=O)[O-])cc1 (stereo not given)
## Result -18.6

## Task Identify growth associated with the compound O=C(NCCCCCCNC(=O)OCc1ccc2c(Cl)cc(Cl)c(O)c2n1)OCc1ccc2c(Cl)cc(Cl)c(O)c2n1
## Result -63.1

## Task Identify growth associated with the compound COc1ccc(OC)c(Nc2nnc(-c3cc(OC)c(OC)c(OC)c3)o2)c1
## Result 95

## Task Identify growth associated with the compound O=C1/C(=C/c2ccc(Cl)cc2)CN(C(=O)C(Cl)Cl)C/C1=C\c1ccc(Cl)cc1
## Result -80.2

## Task Identify growth associated with the compound COc1ccc2c(c1)C(C)Cc1c(ncnc1-n1cnc3cc(C)ccc31)N2C (stereo not given)
## Result 12.3

====

system: MCF7 breast; assay: NCI-60 one-dose screen, 48 h (100 = growth as untreated, 0 = no growth, -100 = all killed); conditions: 10 µM unless noted
The panel holds about 83,000 compounds, 20% with a hit somewhere; the sample as a whole holds those more often.
So basically, if growth comes in under 20% it's 1.0, and if it's 20% or more it's 0.0.

As a guide, the following entries are already answered.
>>> assigned_label("CNC(=O)c1cc(Oc2ccc3c(c2)sc2nc(-c4ccc(NC(=O)[C@@H](NC(=O)OC)C(C)C)cc4)cn23)ccn1")
0.0
>>> assigned_label("COC(=O)c1ccc2c(c1)c1c(C)c3cnccc3c(C)c1n2C")
1.0
>>> assigned_label("COc1ccc(C(c2cc(OC)c(OC)c(OC)c2)N2CCCCC2)cc1 (stereo not given)")
0.0
>>> assigned_label("COc1cc(/C=C/C(=O)c2cccc(-n3cc(-c4ccc(Cl)cc4)[nH]c3=O)c2)ccc1O")
1.0
>>> assigned_label("Cn1c(=O)c2[nH]c(SC/C(=N/O)c3ccc(Br)cc3)nc2n(C)c1=O")
0.0
>>> assigned_label("C/C(=C(\\c1ccc(OCCN2CCCCCC2)cc1)c1ccc(OC(=O)c2ccccc2)cc1)c1ccc(Cl)cc1")
1.0
>>> assigned_label("C=C1C(=O)O[C@H]2[C@H]1CC/C(COC(=O)/C=C\\C(=O)NCc1ccc(Cn3c(=O)sn(CCCCl)c3=O)cc1)=C\\CC[C@@]1(C)O[C@@H]21")
0.0
>>> assigned_label("CCOC(=O)CC[C@H](NC(=O)c1ccc(N(C)Cc2cnc3nc(N)nc(N)c3n2)c2ccccc12)C(=O)OCC")
1.0
>>> assigned_label("CC(O)Cc1c[nH]c(=O)[nH]c1=O (stereo not given)")
0.0
>>> assigned_label("O=C1Nc2ccc(Cl)cc2/C1=C/c1ccc[nH]1")
1.0

## Task Determine whether this compound shows growth lower than 20% (ties excluded): Cn1c(C#N)ccc1-c1ccc(F)c(NC(=O)c2ccc(F)cc2)c1
## Result 0.0

## Task Determine whether this compound shows growth lower than 20% (ties excluded): O=c1oc2ccccc2cc1-c1nn(-c2ccccc2)cc1-c1nn[nH]n1
## Result 0.0

## Task Determine whether this compound shows growth lower than 20% (ties excluded): OC1(c2ccccc2)c2ccccc2N(c2ccccc2)c2ccc(Cl)cc21 (stereo not given)
## Result 1.0

## Task Determine whether this compound shows growth lower than 20% (ties excluded): CCOC(=O)c1c(NC(=O)c2ccccc2)sc2c3c(ccc12)OCN(C)C3
## Result 1.0

## Task Determine whether this compound shows growth lower than 20% (ties excluded): Ic1ccc(Nc2nc3nonc3nc2Nc2ccc(I)cc2)cc1
## Result 1.0

## Task Determine whether this compound shows growth lower than 20% (ties excluded): C=C1SC(=Nc2ccccc2Cl)N(C(=O)c2sc3ccccc3c2Cl)C1(C)C
## Result 0.0

## Task Determine whether this compound shows growth lower than 20% (ties excluded): CCn1cc(C(=O)O)c(=O)c2cc(F)c(N3CCN(CC(=O)Nc4ccccc4)C(C)C3)c(F)c21 (stereo not given)
## Result 0.0

====

Tested on: SR leukemia
Assay: NCI-60 one-dose screen, 48 h (100 = growth as untreated, 0 = no growth, -100 = all killed)
Conditions: 10 µM unless noted
Description: Growth inhibition of the SR human tumor cell line is measured as a screen for anti-cancer activity. Cells are grown in 96 well plates and exposed to the test compound for 48 hours. Compounds are tested at a single concentration, which is 10^-5 M for most compounds. The reported endpoint is percent growth (GI% or GIPRCNT), where numbers from 0 - 100% represent growth inhibition, and numbers from -100% - 0 represent cell death. For example, a value of 40 represents 60% growth inhibition. […]
This is part of a sample that, as a whole, favours compounds with a hit. Of some 83,000 tested, about 20% had one in any assay.
Recorded growth for the following compounds
State the answer as a number, implicitly in %.

Take a look at these entries with their results.
>>> measured_number("Cc1[nH]n(-c2cccc(Cl)c2)c(=O)c1/C=C1\\C=c2ccccc2=CC1=O")
29.7
>>> measured_number("COc1cc2ncnc(Nc3ccc(S(=O)(=O)Nc4nccs4)cc3)c2cc1OCCCN1CCCC1")
99.1
>>> measured_number("COc1cc(O)c2c(=O)c3c(CC=C(C)C)cc(OC)c(O)c3oc2c1")
24.7
>>> measured_number("COc1cc(/C=C/C(=O)c2cc(OC)c(OC)c(OC)c2)ccc1Oc1nc2c(c(=O)n(C)c(=O)n2C)n1C")
8.62
>>> measured_number("Cc1[nH]c(C(=O)Nc2ccccc2OC2CCN(CCN3CCOCC3)CC2)c(Cl)c1Cl")
10.3
>>> measured_number("O=C1Nc2ccc(Cl)cc2/C1=C/c1ccc[nH]1")
50.4
>>> measured_number("COc1ccc2c(c1)CC[C@@H]1[C@@H]2CC[C@]2(C)C3C(=CC(COC(C)=O)C4C(=O)N(c5ccc(Cl)cc5)C(=O)C43)C[C@@H]12 (stereo not given in full)")
35.4
>>> measured_number("Cc1ccc(C2CC(c3cccc(Nc4ccncc4)c3)=Nc3c(N)nc(N)nc3N2)cc1 (stereo not given)")
-4.18

## Task Would you please give the reported growth of COc1ccc(C(O)c2cc3c(N)c(C(=O)Nc4cccc5ccccc45)sc3nc2C)cc1 (stereo not given) with SR leukemia?
## Result 12.7
